System: FaDu human head and neck cancer xenograft
Test: Xenograft model of anti-NTSR1 ADCs (head and neck cancer)
Format: in vivo, male NOD SCID mice
Settings: 5 mpk, IV, BIW × 3; Day 5
Excerpt: The aim of this study was to evaluate the in vivo anti-tumor efficacy of αNTSR1 (AKT2) 4seco-DUBA, αNTSR1 (AKT2 Hu/Hu) 4seco-DUBA, and αNTSR1 (AKT2 Hu/Hd) 4seco-DUBA in FaDu human head and neck cancer xenograft model in male NOD SCID mice. […] The tumor volumes, body weights, mortality, and signs of overt toxicity were monitored and recorded three times weekly for 28 days. […]
Measured Property: TGI % (1-T/C) Day 5 (%)
Entry rule: numbers only, all in %.

Molecule: AKT2: affinity-matured mouse-human chimera anti-NTSR1 antibody, AKT2 VH (SEQ ID NO: 9) and AKT2 VL (SEQ ID NO: 10) (antibody, V domains shown) VH: QVQLQQPGSVLVRPGASVKLSCKASGYAFTSSWIHWAKQRPGQGLEWIGQIRPNSGNTYYNEKFKVKATLTVDTSSSTAYVDLSSLTSEDSAVYYCARYHYGFDYWGQGTLVTVSS VL: DVLMTQTPLSLPVSLGDQASISCRSSQSIVHSNGNTYLEWYLQKPGQSPKLLIYKVSNRFSGVPDRFSGSGSGTDFTLKISRVEAEDLGVYYCFQGAHLPWTFGGGTKLEIK
Experimental Result: 11.1

Requested read-out: TGI % (1-T/C) Day 5. Entry: AKT2 HuHd: humanized anti-NTSR1 antibody, AKT2 HuVH (SEQ ID NO: 16) and AKT2 HdVL (SEQ ID NO: 15) (antibody, V domains shown) VH: QVQLVQSGAEVKKPGASVKVSCKASGYAFTSSWIHWVRQAPGQGLEWMGQIRPNSGNTYYNEKFKVRVTMTRDTSTSTVYMELSSLRSEDTAVYYCARYHYGFDYWGQGTLVTVSS VL: DIQMTQSPSSLSASVGDRVTITCRSSQSIVHSNGNTYLEWYQQKPGKAPKLLIYKVSNRFSGVPSRFSGSGSGTDFTLTISSLQPEDFATYYCFQGAHLPWTFGQGTKVEIK
13.1

Requested read-out: TGI % (1-T/C) Day 5. Entry: AKT2 HuHu: humanized anti-NTSR1 antibody, AKT2 HuVH (SEQ ID NO: 16) and AKT2 HuVL (SEQ ID NO: 17) (antibody, V domains shown) VH: QVQLVQSGAEVKKPGASVKVSCKASGYAFTSSWIHWVRQAPGQGLEWMGQIRPNSGNTYYNEKFKVRVTMTRDTSTSTVYMELSSLRSEDTAVYYCARYHYGFDYWGQGTLVTVSS VL: DIVMTQTPLSLSVTPGQPASISCRSSQSIVHSNGNTYLEWYLQKPGQSPQLLIYKVSNRFSGVPDRFSGSGSGTDFTLKISRVEAEDVGVYYCFQGAHLPWTFGQGTKVEIK
33.4

Requested read-out: TGI % (1-T/C) Day 5. Entry: αNTSR1 (AKT2 Hu/Hd) 4seco-DUBA: antibody-drug conjugate of humanized antibody AKT2 HuHd with seco-DUBA payload (conjugate) heavy chain: QVQLVQSGAEVKKPGASVKVSCKASGYAFTSSWIHWVRQAPGQGLEWMGQIRPNSGNTYYNEKFKVRVTMTRDTSTSTVYMELSSLRSEDTAVYYCARYHYGFDYWGQGTLVTVSS light chain: DIQMTQSPSSLSASVGDRVTITCRSSQSIVHSNGNTYLEWYQQKPGKAPKLLIYKVSNRFSGVPSRFSGSGSGTDFTLTISSLQPEDFATYYCFQGAHLPWTFGQGTKVEIK
29.8

Requested read-out: TGI % (1-T/C) Day 5. Entry: αNTSR1 (AKT2) 4seco-DUBA: antibody-drug conjugate of chimera antibody AKT2 with seco-DUBA payload (conjugate) heavy chain: QVQLQQPGSVLVRPGASVKLSCKASGYAFTSSWIHWAKQRPGQGLEWIGQIRPNSGNTYYNEKFKVKATLTVDTSSSTAYVDLSSLTSEDSAVYYCARYHYGFDYWGQGTLVTVSS light chain: DVLMTQTPLSLPVSLGDQASISCRSSQSIVHSNGNTYLEWYLQKPGQSPKLLIYKVSNRFSGVPDRFSGSGSGTDFTLKISRVEAEDLGVYYCFQGAHLPWTFGGGTKLEIK
28.5

The reported numbers originate from patent US12091454B2.
